experimental_target: 肺炎支原体天然抗原(购自Microbix) (Mycoplasma pneumoniae)
experiment_summary: indirect ELISA, antigen coated at 2 ug/ml, antibody 15 ng/ml
measured_metric: OD450 (参考630nm) (OD)
Please reply with the bare figure in OD and do not write the unit itself.

Here's what some known entries look like.
| binder | units_text | OD450 (参考630nm) |
| --- | --- | --- |
| Anti-MP-22A9mut6 (antibody, mouse IgG1, kappa, V domains shown) VH: QAYLQQSGAELVRSGASVKMSCKASGYTFTTYNMHWVKQTPGQGLEWIGYVHPGYGITYYSQKFKGKATLTADTSSSTAYMLLSSITSEDSAVYFCTRSYYGYSYWFFDVWGAGTTVTVSS VL: NIVMTQSPKSVSMSVGERVTLNCKASENVGSYVAWYQQKPDRSPKLLIHGASNRYTGVPDRFTGSGSTTDFTLTLSSVQAEDLADYHCGQTYNYPYTFGGGTKLEIKR | OD | 2.01 |
| Anti-MP-22A9mut5 (antibody, mouse IgG1, kappa, V domains shown) VH: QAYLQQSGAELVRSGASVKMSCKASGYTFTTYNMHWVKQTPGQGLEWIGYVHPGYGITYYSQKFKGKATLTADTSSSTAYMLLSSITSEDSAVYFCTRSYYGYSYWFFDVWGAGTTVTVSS VL: NIVMTQSPKSVSMSVGERVTLNCKASENVGSYVAWYQQKPDRSPKLLIHGASNRYTGVPDRFTGSGSTTDFTITISSVQAEDLADYHCGQTYNYPYTFGGGTKLEIKR | OD | 2.03 |

Please examine the following record next.
Query: Given the binder Anti-MP-22A9mut4 (antibody, mouse IgG1, kappa, V domains shown) VH: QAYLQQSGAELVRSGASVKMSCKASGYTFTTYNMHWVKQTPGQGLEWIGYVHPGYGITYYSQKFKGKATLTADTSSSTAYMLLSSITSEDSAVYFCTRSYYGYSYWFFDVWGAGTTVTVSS VL: NIVMTQSPKSVSMSVGERVTLNCKASENVGSYVAWYQQKPDRSPKLLIHGASNRYTGVPDRFTGSGSTTDFTLTISSVQAEDLADYHCGQTYNYPYTFGGGTKLEIKR , what is its reported OD450 (参考630nm)?
Result: 1.98
